target: full length human recombinant glucocorticoid receptor (Homo sapiens); construct: It contains some partially purified full length human recombinant glucocorticoid receptor; assay: Glucocorticoid Receptor Binding Assay (Glucocorticoid Receptor Competitor Assay far red kit, fluorescence polarization); details: competition with fluorescent GR ligand Fluormone GS Far Red, 3 hours at 22° C., pH 7.4; Ki calculated from IC50 by Cheng-Prusoff
Sequence (P04150 whole entry): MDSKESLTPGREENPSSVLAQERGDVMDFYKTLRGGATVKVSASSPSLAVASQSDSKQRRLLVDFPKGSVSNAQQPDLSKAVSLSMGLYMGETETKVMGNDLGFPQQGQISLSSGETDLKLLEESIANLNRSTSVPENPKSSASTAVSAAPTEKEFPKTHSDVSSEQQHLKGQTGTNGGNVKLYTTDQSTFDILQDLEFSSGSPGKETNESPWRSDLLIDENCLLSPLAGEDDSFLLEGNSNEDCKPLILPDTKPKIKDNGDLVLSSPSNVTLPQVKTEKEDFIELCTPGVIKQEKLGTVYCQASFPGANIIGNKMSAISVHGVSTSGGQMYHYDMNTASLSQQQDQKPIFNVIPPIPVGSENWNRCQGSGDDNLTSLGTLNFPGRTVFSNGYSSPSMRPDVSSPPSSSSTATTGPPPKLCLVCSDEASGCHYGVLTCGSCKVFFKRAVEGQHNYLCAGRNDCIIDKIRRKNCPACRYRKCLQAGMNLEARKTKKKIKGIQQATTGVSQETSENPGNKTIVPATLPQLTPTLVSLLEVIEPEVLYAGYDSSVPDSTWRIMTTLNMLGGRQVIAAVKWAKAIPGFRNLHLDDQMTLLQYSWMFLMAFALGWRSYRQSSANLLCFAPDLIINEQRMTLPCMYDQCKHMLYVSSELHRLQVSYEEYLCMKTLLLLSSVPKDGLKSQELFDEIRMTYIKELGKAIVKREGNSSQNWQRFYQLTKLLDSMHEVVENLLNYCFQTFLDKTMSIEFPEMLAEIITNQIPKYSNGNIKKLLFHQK
Endpoint Name: Ki (nM)
Form entry: value (nM) — number only.

(Q) What value of Ki has been recorded for this entry: C[C@@H](c1ccc(-c2cccc(CC(=O)O)c2)cc1Cl)[C@](O)(c1ccc2c(c1)N(C)C(=O)CO2)C(F)(F)F (relative stereo)
(A) 1.5

(Q) Try this compound next: CCOC(=O)c1cccc(Oc2ccc(Cl)c([C@H](C)[C@](O)(c3ccc4c(c3)N(C)C(=O)CO4)C(F)(F)F)c2)c1 (relative stereo)
(A) 7.5

(Q) Try this compound next: COC(=O)c1ccc(-c2ccc([C@H](C)[C@](O)(c3ccc(=O)n4ccccc34)C(F)(F)F)c(Cl)c2)cc1F (stereo in doubt)
(A) 16

(Q) Try this compound next: C[C@H](c1ccc(Oc2ccc(C(=O)O)c(C(F)(F)F)n2)cc1Cl)[C@@](O)(c1ccc2c(c1)N(C)C(=O)CO2)C(F)(F)F (stereo in doubt)
(A) 1.4

(Q) Try this compound next: C[C@H](c1ccc(-c2ccc(C(=O)O)c(F)c2)cc1Cl)[C@@](O)(c1cccc(C#N)c1)C(F)(F)F (relative stereo)
(A) 23.2

(Q) Try this compound next: C[C@@H](c1ccc(Oc2ccc(CC(=O)O)cc2)cc1Cl)[C@](O)(c1ccc2c(c1)n(C)c(=O)n2C)C(F)(F)F (stereo in doubt)
(A) 1.1
